Where do these numbers come from? They come from ChEMBL document CHEMBL3885861.

Can you tell me KIDNEY_R for the items I'm about to list?
Species: Rattus norvegicus
Test: Open TG-GATES - Regimen: Daily Repeat
Assay type: toxicity, organism-based, Sprague-Dawley
Set-up: regimen Daily Repeat, gender Male, age 6 weeks
Settings: in vivo, po, 0 mg/kg, […], tissue Kidney, route gavage, dose level Control, time 28 day
Your answer is read as g, so omit the unit and give the number.

Look up KIDNEY_R: O=C1CN(/N=C/c2ccc([N+](=O)[O-])o2)C(=O)N1
1.5

Same question for C[C@H]1O[C@H](O[C@H]2[C@H](O)[C@@H](O)[C@@H](O[C@H]3[C@H](O)[C@@H](O)C(O)O[C@@H]3CO)O[C@@H]2CO)[C@H](O)[C@@H](O)[C@@H]1N[C@H]1C=C(CO)[C@@H](O)[C@H](O)[C@H]1O (stereo partly specified) please.
1.3

Same question for C[C@H]1C(=O)O[C@@H]2CCN3CC=C(COC(=O)[C@](C)(O)[C@]1(C)O)[C@H]23 please.
1.4

Same question for OCCN1CCN(CCCN2c3ccccc3Sc3ccc(C(F)(F)F)cc32)CC1 please.
1.5

Same question for CCOC(=O)C(C)(C)Oc1ccc(Cl)cc1 [CLOFIBRATE] please.
1.4

Same question for Cc1cccc(C)c1OCC(C)N (stereo unspecified) please.
1.5

====

Organism: Rattus norvegicus
Experiment: Open TG-GATES - Regimen: Single
Type: toxicity, organism-based, Sprague-Dawley
Design: regimen Single, gender Male, age 6 weeks
Settings: in vivo, po, 0 mg/kg, 6 h, tissue Plasma, route gavage, dose level Control
Can you tell me A/G for the items I'm about to list?
Please give the numeric answer without any surrounding text.

Look up A/G: C[C@H]1C(=O)O[C@@H]2CCN3CC=C(COC(=O)[C@](C)(O)[C@]1(C)O)[C@H]23
1.3

Same question for Cn1cc[nH]c1=S please.
1.2

Same question for C[C@H]1O[C@H](O[C@H]2[C@H](O)[C@@H](O)[C@@H](O[C@H]3[C@H](O)[C@@H](O)C(O)O[C@@H]3CO)O[C@@H]2CO)[C@H](O)[C@@H](O)[C@@H]1N[C@H]1C=C(CO)[C@@H](O)[C@H](O)[C@H]1O (stereo partly drawn) please.
0.9

Same question for C=C(C)[C@H]1Cc2c(ccc3c2O[C@@H]2COc4cc(OC)c(OC)cc4[C@@H]2C3=O)O1 please.
2.3

Same question for CCOC(=O)C(C)(C)Oc1ccc(Cl)cc1 [CLOFIBRATE] please.
1.7

Same question for O=[N+]([O-])c1ccc(O)c([N+](=O)[O-])c1 please.
2.5

Same question for Cc1ccc2cc3c(ccc4ccccc43)c3c2c1CC3 please.
1

Same question for Cc1cccc(C)c1OCC(C)N (stereo not drawn) please.
1.3

====

Organism: Rattus norvegicus
Test: Open TG-GATES - Regimen: Daily Repeat
Type: toxicity, organism-based, Sprague-Dawley
Set-up: regimen Daily Repeat, gender Male, age 6 weeks
Conditions: in vivo, po, 0 mg/kg, 72 h, tissue Blood, route gavage, dose level Control, time 3 day
reported-endpoint: Lym (%)
Your answer is read as %, so omit the unit and give the number.

Look up Lym: CCOC(=O)C(C)(C)Oc1ccc(Cl)cc1 [CLOFIBRATE]
75

Same question for O=[N+]([O-])c1ccc(O)c([N+](=O)[O-])c1 please.
74.4

Same question for Cc1cccc(C)c1OCC(C)N (stereo not given) please.
81.6

Same question for OCCN1CCN(CCCN2c3ccccc3Sc3ccc(C(F)(F)F)cc32)CC1 please.
77

Same question for C=C(C)[C@H]1Cc2c(ccc3c2O[C@@H]2COc4cc(OC)c(OC)cc4[C@@H]2C3=O)O1 please.
77.8
